Test system: Staphylococcus aureus FDA-209P
Experiment: antimicrobial activity, broth dilution method
Type: cell-based
Conditions: Staphylococcus aureus, FDA209P, Staphylococcus aureus FDA-209P; broth dilution; read-out: minimum inhibitory concentration (MIC)
reported.metric: MIC (µg/mL)
Answers are plain numbers, in µg/mL.

Please review the entries below; each comes with its answer.
Inquiry: # get_value(readout='MIC', item= CCC1OC(=O)CC(O)C(C)C(OC2OC(C)C(OC3CC(C)(O)C(OC(=O)CS(=O)(=O)c4ccccc4)C(C)O3)C(N(C)C)C2O)C(CC=O)CC(C)C(=O)C=CC(C)=CC1COC1OC(C)C(O)C(OC)C1OC (centres unmarked) )
Reply text: 0.78

Inquiry: // MIC lookup, key: CCC1OC(=O)CC(OC(C)=O)C(C)C(OC2OC(C)C(OC3CC(C)(O)C(OC(=O)Cc4cccnc4)C(C)O3)C(N(C)C)C2O)C(CC=O)CC(C)C(=O)C=CC(C)=CC1COC1OC(C)C(O)C(OC)C1OC (centres unmarked)
Reply text: 0.39

Inquiry: Report MIC for CCC1OC(=O)CC(OC(C)=O)C(C)C(OC2OC(C)C(OC3CC(C)(O)C(OC(=O)C(O)c4ccccc4)C(C)O3)C(N(C)C)C2O)C(CC=O)CC(C)C(=O)C=CC(C)=CC1COC1OC(C)C(O)C(OC)C1OC (centres unmarked) please.
Reply text: 0.78

Inquiry: Looking for the measured MIC of CCOC(=O)OC1C(C)OC(OCC2C=C(C)C=CC(=O)C(C)CC(CC=O)C(OC3OC(C)C(OC4CC(C)(O)C(O)C(C)O4)C(N(C)C)C3OC(C)=O)C(C)C(OC(C)=O)CC(=O)OC2CC)C(OC)C1OC (centres unmarked) , can you help?
Reply text: 0.78

Inquiry: What does the data say about its MIC? Entry: CCC1OC(=O)CC(O)C(C)C(OC2OC(C)C(OC3CC(C)(O)C(OC(=O)COc4ccccc4)C(C)O3)C(N(C)C)C2O)C(CC=O)CC(C)C(=O)C=CC(C)=CC1COC1OC(C)C(O)C(OC)C1OC (centres unmarked)
Reply text: 0.39

Please look at the items below and tell me MIC for each one, in order.
1. CCCCCC(=O)OC1C(C)OC(OC2C(C)OC(OC3C(CC=O)CC(C)C(=O)C=CC(C)=CC(COC4OC(C)C(O)C(OC)C4OC)C(CC)OC(=O)CC(O)C3C)C(O)C2N(C)C)CC1(C)O (centres unmarked)
2. CCC1OC(=O)CC(O)C(C)C(OC2OC(C)C(OC3CC(C)(O)C(OC(=O)Cc4cccc5ccccc45)C(C)O3)C(N(C)C)C2O)C(CC=O)CC(C)C(=O)C=CC(C)=CC1COC1OC(C)C(O)C(OC)C1OC (centres unmarked)
3. CCCCCCCCCC(=O)OC1C(C)OC(OC2C(C)OC(OC3C(CC=O)CC(C)C(=O)C=CC(C)=CC(COC4OC(C)C(O)C(OC)C4OC)C(CC)OC(=O)CC(O)C3C)C(O)C2N(C)C)CC1(C)O (centres unmarked)

Reply text:
1: 0.78; 2: 1.56; 3: 1.56

* * *

Kindly state MIC for each of the entries shown.
Tested on: Staphylococcus aureus FDA-209P
Assay: antimicrobial activity, broth dilution method
Type: cell-based
Conditions: Staphylococcus aureus, FDA209P, Staphylococcus aureus FDA-209P; broth dilution; read-out: minimum inhibitory concentration (MIC)
Answers are plain numbers, in mg/L.

Here are 4 compounds together with their reported answers.
Inquiry: // returns reported MIC for input CCC1OC(=O)CC(OC(C)=O)C(C)C(OC2OC(C)C(OC3CC(C)(O)C(OC(=O)Cc4cccc5ccccc45)C(C)O3)C(N(C)C)C2O)C(CC=O)CC(C)C(=O)C=CC(C)=CC1COC1OC(C)C(O)C(OC)C1OC (stereo not drawn) [Compound 23, 3-acetyl-4"-α-naphthylacetyltylosin]
Reply text: 0.78

Inquiry: Quick check: MIC of CCC1OC(=O)CC(OC(C)=O)C(C)C(OC2OC(C)C(OC3CC(C)(O)C(OC(=O)COc4ccccc4)C(C)O3)C(N(C)C)C2O)C(CC=O)CC(C)C(=O)C=CC(C)=CC1COC1OC(C)C(O)C(OC)C1OC (stereo not drawn) [Compound 45, 3-acetyl-4"-phenoxyacetyltylosin] ?
Reply text: 0.39

Inquiry: May I ask what MIC has been recorded for CCCCCC(=O)OC1C(C)OC(OC2C(C)OC(OC3C(CC=O)CC(C)C(=O)C=CC(C)=CC(COC4OC(C)C(O)C(OC)C4OC)C(CC)OC(=O)CC(OC(C)=O)C3C)C(O)C2N(C)C)CC1(C)O (stereo not drawn) [Compound 8] ?
Reply text: 0.39

Inquiry: Fill blank: measured MIC of the compound CCC1OC(=O)CC(OC(C)=O)C(C)C(OC2OC(C)C(OC3CC(C)(O)C(OC(=O)CCc4ccccc4)C(C)O3)C(N(C)C)C2O)C(CC=O)CC(C)C(=O)C=CC(C)=CC1COC1OC(C)C(O)C(OC)C1OC (stereo not drawn) [Compound 25, 3-acetyl-4"-β-phenylpropionyltylosin] is ____.
Reply text: 1.56

Dear reader, for each entry below, please note its MIC.
1. CCC1OC(=O)CC(O)C(C)C(OC2OC(C)C(OC3CC(C)(O)C(O)C(C)O3)C(N(C)C)C2OC(=O)CCl)C(CC=O)CC(C)C(=O)C=CC(C)=CC1COC1OC(C)C(O)C(OC)C1OC (stereo not drawn) [2'-monochloroacetyltylosin, reference compound]
2. CCC1OC(=O)CC(O)C(C)C(OC2OC(C)C(OC3CC(C)(O)C(OC(=O)CCC4CCCCC4)C(C)O3)C(N(C)C)C2O)C(CC=O)CC(C)C(=O)C=CC(C)=CC1COC1OC(C)C(O)C(OC)C1OC (stereo not drawn) [Compound 29, 4"-β-cyclohexylpropionyl tylosin]

Reply text:
1.56
0.78

Sourced from patent US4205163A
